# Test system: GlyT1 transporter (Homo sapiens)
# Construct: endogenously expressing the GlyT1 transporter
# Sequence (P48067 whole entry): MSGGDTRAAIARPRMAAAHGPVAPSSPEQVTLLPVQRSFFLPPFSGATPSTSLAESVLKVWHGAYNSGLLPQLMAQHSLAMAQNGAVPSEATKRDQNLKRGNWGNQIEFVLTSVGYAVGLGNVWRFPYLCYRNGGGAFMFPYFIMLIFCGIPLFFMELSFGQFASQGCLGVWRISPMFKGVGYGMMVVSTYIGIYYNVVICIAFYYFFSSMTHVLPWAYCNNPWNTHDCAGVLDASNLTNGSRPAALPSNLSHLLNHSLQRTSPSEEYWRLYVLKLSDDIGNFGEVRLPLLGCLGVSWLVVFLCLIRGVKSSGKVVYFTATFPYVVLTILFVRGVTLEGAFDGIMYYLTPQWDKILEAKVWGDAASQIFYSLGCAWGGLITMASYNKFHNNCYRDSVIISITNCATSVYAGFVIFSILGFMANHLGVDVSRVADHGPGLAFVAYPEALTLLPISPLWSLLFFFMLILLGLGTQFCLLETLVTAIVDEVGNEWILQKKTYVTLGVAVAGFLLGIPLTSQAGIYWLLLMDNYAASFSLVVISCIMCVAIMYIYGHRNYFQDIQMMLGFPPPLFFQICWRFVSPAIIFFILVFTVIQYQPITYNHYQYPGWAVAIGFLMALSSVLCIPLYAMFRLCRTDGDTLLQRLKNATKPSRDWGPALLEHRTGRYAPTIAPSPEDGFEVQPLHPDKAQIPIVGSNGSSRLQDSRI
# Procedure text: GlyT1 assay: 3H-glycine uptake into SK-N-MC cells (Cytostar-T format)
# Conditions: glycine uptake in human SK-N-MC cells endogenously expressing GlyT1; 500 nM glycine, 1% DMSO, signal recorded over 60 min
Assay metric: IC50 (nM)

INSERT INTO results (compound, numeric_readout) VALUES
  ('Cc1cc(C23CC2CN(C(=O)c2cc(S(C)(=O)=O)ccc2O[C@@H](C)C(F)(F)F)C3)no1 (mixture of isomers)', 15);

[a] CCS(=O)(=O)c1ccc(O[C@H](C)C(F)(F)F)c(C(=O)N2CC3CC3(c3cc(C(F)(F)F)on3)C2)c1 (single isomer, unassigned) [Example 106]
[b] C[C@@H](Oc1ccc(S(C)(=O)=O)cc1C(=O)N1CC2CC2(c2noc(C3CC3)n2)C1)C(F)(F)F (mixture of isomers) [Example 41]
Record comparison, field IC50: mark the lower of a and b . Write down the label attached to your selection.
b
